Hello, the source for this data is patent US12637428B2, in case you need it.

This document collects pKi values reported for UniProtKB P57059.
pKi: −log10 of the molar value.
quantity-kind: pKi

{"item-smiles": "Cc1cccc(F)c1-c1cc(OC2CN(C)C2)c2cc(N)ncc2c1", "measured": 8.84}
{"item-smiles": "Cc1cccc(F)c1-c1cc(N[C@@H]2CCN(C)C2)c2cc(N)ncc2c1", "measured": 9.52}
{"item-smiles": "Cc1cccc(F)c1-c1cc2cnc(N)cc2c(NC2CCNCC2)c1F", "measured": 9.25}

* * *

# tgt: SIK1 (Homo sapiens, UniProt P57059)
# Sequence (P57059 whole entry): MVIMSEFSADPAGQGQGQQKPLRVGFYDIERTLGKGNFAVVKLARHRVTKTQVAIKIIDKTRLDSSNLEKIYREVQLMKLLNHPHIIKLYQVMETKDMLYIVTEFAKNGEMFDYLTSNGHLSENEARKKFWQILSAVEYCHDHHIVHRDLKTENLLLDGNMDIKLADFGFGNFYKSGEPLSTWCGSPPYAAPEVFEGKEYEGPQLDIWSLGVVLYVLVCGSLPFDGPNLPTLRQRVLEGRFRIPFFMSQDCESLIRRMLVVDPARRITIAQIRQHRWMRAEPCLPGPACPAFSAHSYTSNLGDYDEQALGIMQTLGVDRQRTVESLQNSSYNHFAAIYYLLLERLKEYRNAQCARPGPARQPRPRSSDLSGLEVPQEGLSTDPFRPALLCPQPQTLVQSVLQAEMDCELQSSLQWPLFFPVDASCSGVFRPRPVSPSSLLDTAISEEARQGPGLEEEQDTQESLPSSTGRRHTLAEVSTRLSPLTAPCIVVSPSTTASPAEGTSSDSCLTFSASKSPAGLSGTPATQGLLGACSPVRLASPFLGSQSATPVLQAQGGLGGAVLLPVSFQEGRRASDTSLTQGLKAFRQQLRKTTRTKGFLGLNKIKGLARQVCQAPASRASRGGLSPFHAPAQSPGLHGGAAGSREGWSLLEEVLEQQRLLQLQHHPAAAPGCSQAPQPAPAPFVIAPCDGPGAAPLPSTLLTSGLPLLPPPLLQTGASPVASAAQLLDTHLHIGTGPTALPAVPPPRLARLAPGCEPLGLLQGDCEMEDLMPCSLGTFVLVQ
The class of a record is decided solely by its measured Ki; consult bottom bin = under 0.4 nM, middle bin = from 0.4 nM up to 3 nM, top bin = 3 nM and over

{"item-smiles": "Cc1cccc(F)c1-c1cc(N[C@H]2CCCCNC2)c2cc(N)ncc2c1", "assigned-class": "bottom bin"}
{"item-smiles": "Cc1cccc(F)c1-c1cc(N2CCC[C@@H](CN(C)C)C2)c2cc(N)ncc2c1", "assigned-class": "top bin"}
{"item-smiles": "Cc1cccc(F)c1-c1cc(N[C@@H]2CCCN(C)C2)c2cc(N)ncc2c1", "assigned-class": "middle bin"}
{"item-smiles": "Cc1cccc(F)c1-c1cc(NC[C@@H]2CCCCN2C)c2cc(N)ncc2c1", "assigned-class": "middle bin"}
{"item-smiles": "Cc1cccc(F)c1-c1cc(N2CC[C@@H](O)C2)c2cc(N)ncc2c1", "assigned-class": "top bin"}
{"item-smiles": "Cc1cccc(F)c1-c1cc(NC2CCNCC2)c2ccncc2c1", "assigned-class": "middle bin"}
{"item-smiles": "Cc1cccc(F)c1-c1cc(NC[C@H]2CCNC2)c2cc(N)ncc2c1", "assigned-class": "bottom bin"}
{"item-smiles": "Cc1cccc(F)c1-c1cc(NC2CNC2)c2cc(N)ncc2c1", "assigned-class": "middle bin"}
{"item-smiles": "Cc1cccc(F)c1-c1cc(C(=O)NC2CCNCC2)c2cc(N)ncc2c1", "assigned-class": "top bin"}

* * *

# tgt: Src (Homo sapiens, UniProt P12931)
# Construct: purchased Life Technologies
# Sequence (P12931 whole entry): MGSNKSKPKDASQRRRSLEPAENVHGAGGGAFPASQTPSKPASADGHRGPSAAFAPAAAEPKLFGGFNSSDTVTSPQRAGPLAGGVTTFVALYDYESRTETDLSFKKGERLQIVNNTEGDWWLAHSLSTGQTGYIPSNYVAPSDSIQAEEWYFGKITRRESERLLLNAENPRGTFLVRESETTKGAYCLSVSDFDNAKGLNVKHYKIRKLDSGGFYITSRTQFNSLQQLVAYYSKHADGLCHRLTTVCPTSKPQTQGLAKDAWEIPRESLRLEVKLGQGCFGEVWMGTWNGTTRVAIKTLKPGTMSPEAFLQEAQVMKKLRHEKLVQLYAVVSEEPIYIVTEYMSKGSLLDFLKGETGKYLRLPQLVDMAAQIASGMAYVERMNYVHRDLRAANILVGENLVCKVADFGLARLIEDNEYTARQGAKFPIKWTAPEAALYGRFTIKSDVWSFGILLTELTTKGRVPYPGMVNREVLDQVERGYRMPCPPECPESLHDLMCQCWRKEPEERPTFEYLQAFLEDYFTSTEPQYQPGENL
# assay-procedure: Src kinase assay, IMAP fluorescence polarization
# Type: biochemical
# assay-context: 50 or 100 μM ATP, average
log10(Ki) values for the molecules below.
quantity-kind: log10(Ki) (log10 of the value in µM)

{"item-smiles": "CNC[C@H]1CCCN(c2cc(-c3c(C)cccc3F)cc3cnc(N)cc23)C1", "measured": -1.30}
{"item-smiles": "Cc1cccc(Cl)c1-c1ccc2c(C(=O)NC3CCNCC3)c(N)ncc2c1", "measured": -1.23}
{"item-smiles": "CN1CCC(Nc2cc(-c3c(F)cccc3Cl)cc3cnc(N)cc23)CC1", "measured": 0.38}
{"item-smiles": "Cc1cccc(F)c1-c1cc(NC2CCNCC2)c2cc(NC(C)C)ncc2c1", "measured": -0.38}
{"item-smiles": "Cc1cccc(F)c1-c1ccc2c(C(=O)NC3CN(C)C3)c(N)ncc2c1", "measured": 0.02}
{"item-smiles": "Cc1cccc(Cl)c1-c1cc(NC2CCN(C)CC2)c2nc(N)ncc2c1", "measured": -1.71}
{"item-smiles": "Cc1cccc(F)c1-c1cc(O[C@@H]2CCNC2)c2cc(N)ncc2c1", "measured": -0.49}
{"item-smiles": "CC(=O)NC1CCN(c2cc(-c3c(C)cccc3F)cc3cnc(N)cc23)CC1", "measured": 0.20}
{"item-smiles": "Cc1cccc(F)c1-c1cc(N[C@H]2CCCCNC2)c2cc(N)ncc2c1", "measured": -1.80}
{"item-smiles": "CN[C@H]1CCCN(c2cc(-c3c(C)cccc3F)cc3cnc(N)cc23)C1", "measured": -1.27}
{"item-smiles": "Cc1cccc(F)c1-c1cc(N2CCC(N(C)C)CC2)c2cc(N)ncc2c1", "measured": -0.52}
{"item-smiles": "Cc1cccc(Cl)c1-c1cc(NC2CCN(C)CC2)c2ncncc2c1", "measured": -0.26}
{"item-smiles": "CCN1CCC(Nc2cc(-c3c(C)cccc3F)cc3cncnc23)CC1", "measured": -0.27}
{"item-smiles": "CNC1CN(c2cc(-c3c(C)cccc3F)cc3cnc(N)cc23)C1", "measured": -1.01}
{"item-smiles": "CNC[C@@H]1CCCN(c2cc(-c3c(C)cccc3F)cc3cnc(N)cc23)C1", "measured": -0.52}
{"item-smiles": "Cc1cccc(F)c1-c1cc(NC(=O)C2CNC2)c2cc(N)ncc2c1", "measured": -0.05}

* * *

# tgt: Src (Homo sapiens, UniProt P12931)
Assign labels as follows, please: true for Ki below 300 nM; false for Ki equal to or exceeding 300 nM.

{"molecule": "Cc1cccc(F)c1-c1cc(OC2CN(C)C2)c2cc(N)ncc2c1", "assigned-class": "true"}
{"molecule": "Cc1cccc(F)c1-c1cc(NC(=O)C2CCNC2)c2cc(N)ncc2c1 (stereo not drawn)", "assigned-class": "true"}
{"molecule": "Cc1cccc(F)c1-c1cc(N2CCC[C@H](O)C2)c2cc(N)ncc2c1", "assigned-class": "false"}
{"molecule": "Cc1cccc(Cl)c1-c1cc(NC2CCNCC2)c2cc(N)ncc2c1", "assigned-class": "true"}
{"molecule": "Cc1cccc(Cl)c1-c1ccc2c(C(=O)N[C@H]3CCNC3)c(N)ncc2c1", "assigned-class": "true"}
{"molecule": "Cc1cccc(F)c1-c1ccc2c(C(=O)NC3CCN(C)CC3)c(N)ncc2c1", "assigned-class": "false"}
{"molecule": "Cc1cccc(F)c1-c1cc(NC2CCN(C)CC2)c2ccncc2c1", "assigned-class": "true"}
{"molecule": "Cc1cccc(F)c1-c1cc(NCC2CNC2)c2cc(N)ncc2c1", "assigned-class": "true"}

* * *

# tgt: SIK2 (Homo sapiens)
# Sequence (Q9H0K1 whole entry): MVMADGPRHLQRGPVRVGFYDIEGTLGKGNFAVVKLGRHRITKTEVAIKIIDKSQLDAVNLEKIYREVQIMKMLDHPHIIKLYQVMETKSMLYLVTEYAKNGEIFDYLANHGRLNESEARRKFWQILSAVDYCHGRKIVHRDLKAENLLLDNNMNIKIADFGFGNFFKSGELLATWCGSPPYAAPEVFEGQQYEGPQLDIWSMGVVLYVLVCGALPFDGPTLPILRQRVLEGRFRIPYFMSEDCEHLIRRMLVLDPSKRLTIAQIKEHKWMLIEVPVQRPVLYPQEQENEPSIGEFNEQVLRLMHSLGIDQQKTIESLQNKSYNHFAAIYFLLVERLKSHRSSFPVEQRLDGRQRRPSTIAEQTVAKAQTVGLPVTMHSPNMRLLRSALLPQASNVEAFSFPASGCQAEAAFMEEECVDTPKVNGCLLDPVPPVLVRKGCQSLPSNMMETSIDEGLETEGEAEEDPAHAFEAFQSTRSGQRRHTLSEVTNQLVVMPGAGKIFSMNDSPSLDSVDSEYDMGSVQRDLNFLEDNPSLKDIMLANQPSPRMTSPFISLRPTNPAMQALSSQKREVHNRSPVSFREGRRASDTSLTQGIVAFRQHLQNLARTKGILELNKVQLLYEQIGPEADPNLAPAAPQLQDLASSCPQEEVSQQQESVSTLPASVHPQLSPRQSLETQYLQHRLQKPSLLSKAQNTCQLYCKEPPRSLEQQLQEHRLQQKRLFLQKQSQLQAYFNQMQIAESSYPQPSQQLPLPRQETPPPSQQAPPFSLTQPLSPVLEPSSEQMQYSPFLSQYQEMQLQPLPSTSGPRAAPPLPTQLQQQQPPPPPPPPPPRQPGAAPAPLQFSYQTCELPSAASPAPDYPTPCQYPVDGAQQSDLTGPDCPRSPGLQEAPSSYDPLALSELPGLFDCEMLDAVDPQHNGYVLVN
pKi: −log10 of the molar value.
Entry flag: 1 (yes) if pKi reaches 9; 0 (no) if it does not.

{"compound": "Cc1cccc(F)c1-c1cc(N[C@@H]2CCCNC2)c2cc(N)ncc2c1 [Example 25]", "tgt": "SIK2 (Homo sapiens)", "assigned-class": "1 (yes)"}
{"compound": "Cc1cccc(F)c1-c1cc(NC2CN(C)C2)c2cc(N)ncc2c1 [Example 68]", "tgt": "SIK2 (Homo sapiens)", "assigned-class": "1 (yes)"}
{"compound": "Cc1cccc(F)c1-c1cc(NC2CCN(C)CC2)c2ccncc2c1 [Example 103]", "tgt": "SIK2 (Homo sapiens)", "assigned-class": "1 (yes)"}
{"compound": "Cc1cccc(F)c1-c1cc(NC2CCNCC2)c2cc(NC(C)C)ncc2c1 [Example 28]", "tgt": "SIK2 (Homo sapiens)", "assigned-class": "1 (yes)"}
{"compound": "Cc1cccc(F)c1-c1cc(NC[C@@H]2CCN(C)C2)c2cc(N)ncc2c1 [Example 74]", "tgt": "SIK2 (Homo sapiens)", "assigned-class": "1 (yes)"}
{"compound": "Cc1cccc(F)c1-c1cc(N2CC[C@@H](CN(C)C)C2)c2cc(N)ncc2c1 [Example 81]", "tgt": "SIK2 (Homo sapiens)", "assigned-class": "0 (no)"}
{"compound": "Cc1cccc(Cl)c1-c1ccc2c(C(=O)NCC3CNC3)c(N)ncc2c1 [Example 39]", "tgt": "SIK2 (Homo sapiens)", "assigned-class": "0 (no)"}
{"compound": "CCN1CCC(Nc2cc(-c3c(C)cccc3F)cc3cnc(N)nc23)CC1 [Example 127]", "tgt": "SIK2 (Homo sapiens)", "assigned-class": "1 (yes)"}
{"compound": "Cc1cccc(F)c1-c1cc(NC2CCNCC2)c2nc(N)ncc2c1 [Example 124]", "tgt": "SIK2 (Homo sapiens)", "assigned-class": "1 (yes)"}
{"compound": "Cc1cccc(Cl)c1-c1cc(NC2CCN(C)CC2)c2nc(N)ncc2c1 [Example 129]", "tgt": "SIK2 (Homo sapiens)", "assigned-class": "1 (yes)"}
{"compound": "Cc1cccc(F)c1-c1cc(N2CCC(O)CC2)c2cc(N)ncc2c1 [Example 104]", "tgt": "SIK2 (Homo sapiens)", "assigned-class": "0 (no)"}
{"compound": "CNC[C@H]1CCCN(c2cc(-c3c(C)cccc3F)cc3cnc(N)cc23)C1 [Example 21]", "tgt": "SIK2 (Homo sapiens)", "assigned-class": "1 (yes)"}
{"compound": "Cc1cccc(F)c1-c1cc(N[C@@H]2CCCN(C)C2)c2cc(N)ncc2c1 [Example 85]", "tgt": "SIK2 (Homo sapiens)", "assigned-class": "1 (yes)"}
{"compound": "Cc1cccc(F)c1-c1cc(OC2CN(C)C2)c2cc(N)ncc2c1 [Example 102]", "tgt": "SIK2 (Homo sapiens)", "assigned-class": "1 (yes)"}
{"compound": "Cc1cccc(F)c1-c1cc(C(=O)NC2CCNC2)c2cc(N)ncc2c1 (stereo not drawn) [Example 53]", "tgt": "SIK2 (Homo sapiens)", "assigned-class": "0 (no)"}
{"compound": "Nc1cc2c(NC3CCNCC3)cc(-c3c(F)cccc3Cl)cc2cn1 [Example 20]", "tgt": "SIK2 (Homo sapiens)", "assigned-class": "0 (no)"}
{"compound": "Cc1cccc(F)c1-c1ccc2c(C(=O)NCC3CCNCC3)c(N)ncc2c1 [Example 34]", "tgt": "SIK2 (Homo sapiens)", "assigned-class": "0 (no)"}
{"compound": "Cc1cccc(F)c1-c1ccc2c(C(=O)NCC3CN(C)C3)c(N)ncc2c1 [Example 90]", "tgt": "SIK2 (Homo sapiens)", "assigned-class": "0 (no)"}
{"compound": "Cc1cccc(F)c1-c1cc(N[C@@H]2CCCCN(C)C2)c2cc(N)ncc2c1 [Example 80]", "tgt": "SIK2 (Homo sapiens)", "assigned-class": "1 (yes)"}
{"compound": "Cc1cccc(F)c1-c1cc(C2CCN(C)CC2)c2cc(N)ncc2c1 [Example 117]", "tgt": "SIK2 (Homo sapiens)", "assigned-class": "1 (yes)"}
{"compound": "Cc1cccc(Cl)c1-c1cc(NC2CCNCC2)c2nc(N)ncc2c1 [Example 137]", "tgt": "SIK2 (Homo sapiens)", "assigned-class": "1 (yes)"}
{"compound": "Cc1cccc(F)c1-c1cc(NC2CCNCC2)c2ccncc2c1 [Example 49]", "tgt": "SIK2 (Homo sapiens)", "assigned-class": "1 (yes)"}
{"compound": "Cc1cccc(F)c1-c1cc(NC[C@H]2CCCN(C)C2)c2cc(N)ncc2c1 [Example 77]", "tgt": "SIK2 (Homo sapiens)", "assigned-class": "1 (yes)"}
{"compound": "Cc1cccc(F)c1-c1cc(NC2CNC2)c2cc(N)ncc2c1 [Example 3]", "tgt": "SIK2 (Homo sapiens)", "assigned-class": "1 (yes)"}
{"compound": "Cc1cccc(Cl)c1-c1ccc2c(C(=O)N[C@@H]3CCNC3)c(N)ncc2c1 [Example 42]", "tgt": "SIK2 (Homo sapiens)", "assigned-class": "0 (no)"}
{"compound": "Cc1cccc(F)c1-c1ccc2c(C(=O)NC3CNC3)c(N)ncc2c1 [Example 32]", "tgt": "SIK2 (Homo sapiens)", "assigned-class": "0 (no)"}
{"compound": "CC(=O)N[C@H]1CCN(c2cc(-c3c(C)cccc3F)cc3cnc(N)cc23)C1 [Example 112]", "tgt": "SIK2 (Homo sapiens)", "assigned-class": "0 (no)"}
{"compound": "Cc1cccc(F)c1-c1cc(NC2CCNCC2)c2cc(N)ncc2c1F [Example 120]", "tgt": "SIK2 (Homo sapiens)", "assigned-class": "0 (no)"}
{"compound": "Cc1cccc(F)c1-c1cc(NC[C@H]2CCCNC2)c2cc(N)ncc2c1 [Example 2]", "tgt": "SIK2 (Homo sapiens)", "assigned-class": "1 (yes)"}
{"compound": "Cc1cccc(F)c1-c1ccc2c(C(=O)NCC3CCN(C)CC3)c(N)ncc2c1 [Example 91]", "tgt": "SIK2 (Homo sapiens)", "assigned-class": "0 (no)"}
